System: MIA PaCa-2 cells
PROCEDURE_TEXT: Growth inhibition activity on KRAS-G12C mutant cell line (CellTiter-Glo 3D)
Type: cell-based, human
CONDITIONS_USED: Homo sapiens, MIA PaCa-2, 72 h, MIA PaCa-2, 3-day culture with compound; Table 3-1
Overview of recorded IC50 for various molecules
PROPERTY_LABEL: IC50

{"columns": ["MOLECULE", "PROPERTY_LABEL", "RESULT_VALUE"],
 "data": [
  ["Cc1cc2c(nc(C)n2C)c2c1-c1cccc3c(C(=O)c4cc(F)c(NC(=O)/C=C/CNC5CCOC5(C)C)c(F)c4)cn(c13)CCN2C (centres unmarked)", "IC50", "0.035 µM"],
  ["Cc1cc2c(ncn2C)c2c1-c1cccn3c(C(=O)c4cc(F)c(NC(=O)/C=C/CNC56CCC(CC5)OC6)c(F)c4)cc(c13)CCN2C", "IC50", "0.244 µM"],
  ["COc1cc2c(nc(C)n2C)c2c1-c1cccn3c(C(=O)c4cc(F)c(NC(=O)/C=C/CNC5(C)CC5)c(F)c4)cc(c13)CCN2C (single isomer, unassigned)", "IC50", "0.00759 µM"],
  ["Cn1cnc2c3c(c(C(F)(F)F)cc21)-c1cccn2c(C(=O)c4cc(F)c(NC(=O)/C=C/CN5C[C@H]6C[C@@H]5CO6)c(F)c4)cc(c12)CCO3", "IC50", "0.00908 µM"],
  ["Cc1cc2c(nc(C)n2C)c2c1-c1cccc3c(C(=O)c4cc(F)c(NC(=O)/C=C/CN[C@H]5C[C@@H]6CC[C@H]5O6)c(F)c4)cn(c13)CCN2C (racemic)", "IC50", "0.0289 µM"]
]}
